# ELISA absorbance at 450 nm per record follows
- measurement_target: T1, recombinant human DLL4 (Cat# 1506-D4/CF, R&D Systems) (human, UniProt Q9NR61 27-529)
- T1 construct: Bought protein; also called hDLL4; rHuman DLL4
- test_name: ELISA, DLL4 coated, Fab 12.5 nM
- Experimental: The plate was blocked by adding 1% BSA in Tris-buffered Saline Tween (TBST) and incubating for 1 hour at room temperature followed by washing 2 times with 150 μl TBST. A Fab antibody was serially diluted in 1% BSA in PBS. […] The reaction was immediately halted by the addition of 50 μl 0.5M H₂SO₄ and the absorbance at 450 nm was measured using an ELISA plate reader.
State just the number; it will be interpreted in A450.

[[record]]
binder = "Fab VH1-46_IGHD6-6*01_IGHJ1*01 S102A/S103P/S104F/H111F & L6_IGKJ1*01 S28N/S30D/S31H A55G (Fab, V domains shown, Fab made in E. coli: VH on CH1 with His6 and Flag tags (Plasmid A), VL on kappa CL (Plasmid C); also called H: APFF & L: NDH A55G) VH: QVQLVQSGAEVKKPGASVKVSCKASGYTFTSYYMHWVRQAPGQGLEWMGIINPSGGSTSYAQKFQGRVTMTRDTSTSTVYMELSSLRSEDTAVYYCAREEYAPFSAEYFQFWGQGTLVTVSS VL: EIVLTQSPATLSLSPGERATLSCRASQNVDHYLAWYQQKPGQAPRLLIYDASNRGTGIPARFSGSGSGTDFTLTISSLEPEDFAVYYCQQRSNWPPWTFGQGTKVEIKR"
obs_value = 0.198


## Task Record request: ELISA absorbance at 450 nm value, item Fab VH1-46_IGHD6-6*01_IGHJ1*01 S102A/S103P/S104F/H111F & L6_IGKJ1*01 S28N/S30D/S31H S52T (Fab, V domains shown, Fab made in E. coli: VH on CH1 with His6 and Flag tags (Plasmid A), VL on kappa CL (Plasmid C); also called H: APFF & L: NDH S52T) VH: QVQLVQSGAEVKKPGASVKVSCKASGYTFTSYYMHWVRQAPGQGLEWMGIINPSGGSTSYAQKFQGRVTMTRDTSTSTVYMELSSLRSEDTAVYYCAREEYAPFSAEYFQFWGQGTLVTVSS VL: EIVLTQSPATLSLSPGERATLSCRASQNVDHYLAWYQQKPGQAPRLLIYDATNRATGIPARFSGSGSGTDFTLTISSLEPEDFAVYYCQQRSNWPPWTFGQGTKVEIKR
## Result 0.215

## Task Record request: ELISA absorbance at 450 nm value, item Fab VH1-46_IGHD6-6*01_IGHJ1*01 S102A/S103P/S104F/H111F & L6_IGKJ1*01 S28N/S30D/S31H A55S (Fab, V domains shown, Fab made in E. coli: VH on CH1 with His6 and Flag tags (Plasmid A), VL on kappa CL (Plasmid C); also called H: APFF & L: NDH A55S) VH: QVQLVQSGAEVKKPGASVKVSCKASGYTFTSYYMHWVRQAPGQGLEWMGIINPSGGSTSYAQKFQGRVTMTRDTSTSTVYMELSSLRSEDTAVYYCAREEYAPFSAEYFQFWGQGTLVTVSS VL: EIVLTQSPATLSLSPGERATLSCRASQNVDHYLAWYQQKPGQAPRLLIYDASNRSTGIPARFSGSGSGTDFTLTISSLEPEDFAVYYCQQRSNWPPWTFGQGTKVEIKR
## Result 0.258
